Source: ChEMBL document CHEMBL1201862

# System: COLO 205
# ASSAY PROCEDURE: NCI tumour cell line growth inhibition, 48 h
Activity calls are given as the source filed them. Rule as the data show it: active = GI50 up to about 1.1 µM and inactive = higher.
Pick from yes = active, no = inactive when you respond.

// return assay outcome for COc1cc(C(=O)N2CCc3c([nH]c4c([N+](=O)[O-])c(OC)ccc34)C2C)cc(OC)c1OC (centres undefined)
no

Returns: the outcome recorded for Cc1cc(C)nc(NC(P(=O)(O)O)P(=O)(O)O)n1 in this assay.
no

Any idea what this test logged for CCC(=O)NCC1CCCN2CCCCC12 (centres undefined) ?
no

Dear all, I need the recorded test outcome for COC(C[C@H]1CCCC[C@]1(O)/C(=C\CO[Si](C(C)C)(C(C)C)C(C)C)Sc1ccccc1)OC , thank you.
no

Give the logged outcome of this assay for the following compound: O=[N+]([O-])c1ccc(Cl)c(C2CC(c3cccc4ccccc34)=Nc3ccccc3[S+]2[O-])c1 (centres undefined)
no

What call does the record list for C=C1C(=O)O[C@H]2[C@@H](O)[C@H](C)CCC/C(C)=C/CC[C@@]3(C)O[C@@H]3C[C@@H]12 ?
no

I'd appreciate the recorded outcome for Cc1cc(O)c2c(c1)C(C1c3cccc(O)c3C(=O)c3c(O)cc(C)cc31)c1cccc(O)c1C2=O (centres undefined) from this test.
yes

Assay outcome for CN(Cc1cnc2nc(N)nc(N)c2n1)c1ccc(C(=O)NC(CO)CCCO)cc1 (centres undefined) : what was it?
no

Status in this test for CS(=O)(=O)N1CC(CCl)c2ccc(NO)cc21 (centres undefined) ?
no
